Assay: Resistance to Poly (ADP-Ribose) Polymerase inhibitor: Gene Identification via Genome-wide siRNA Screen
Details: mouse BRCA2 R2336H ES cells, olaparib, CellTiter-Glo viability; stronger effect = higher value
Procedure: The role of Poly (ADP-Ribose) Polymerase (PARP) proteins in DNA repair has been elegantly utilized for the synthetic lethality-based treatment of BRCA-deficient tumors by PARP inhibitors. […] Transfections were performed in 384 well plates (Corning 3707). […] Cell viability was measured using CellTiter Glo (Promega). […] PARPi (olaparib, AZD2281) was added 48 h post-transfection (500 nM) and viability (CellTiter Glo, Promega) was assayed 72 h later on a PerkinElmer Envision 2104 Multilabel plate reader. […]
Among all 52,000 sequences or so, about 210 (0.4%) were called active. The sample as a whole holds a higher share of actives than the screen did.
# z-score per record follows
Recorded metric: z-score

In [3]: df
Out[3]:
                          construct_sequence  recorded_metric  assay_value
 0  CCUACUUCCUCCAUUUAGGTT against 5033413D22Rik          z-score         1.42
 1    GCGAUUUUACGGAUCCGGUTT against Olfr1420          z-score       -0.612
 2        GGUUGACACAGAUGAAGAGTT against Rdh9          z-score       -0.356
 3  CGUGCAUGCAAAUUAUGUATT against 4933417O08Rik          z-score       -0.372
 4      GGACAUAAGUGACAGACAUTT against Chrnb2          z-score        -1.32
 5      GGGCAUCAGCAUUUGGUCATT against Pparbp          z-score         1.17
 6  CCCUAGAAUGGGAAUGUCATT against C030022K24Rik          z-score        0.313
 7       GGAGGAAAGAAUGUGUAAATT against Birc3          z-score       -0.544
 8     GGAUCUCUGUUUCUCAAAATT against Slc19a3          z-score        0.771
 9   CCUUCAUUUAUUCUACGAGTT against LOC244556          z-score        0.476
10         CCUGCAGCUGUAAAACCUGTT against Mt4          z-score       -0.909
11  GGACUUUUGGAUAACUUAGTT against 1200008A14Rik          z-score       -0.788
12      GGGCCUUUGGAUGUUGCUATT against Abcc10          z-score         1.24
13  GGUCAUACACUUCUGCACATT against C330006K01Rik          z-score         1.27
14       CGUAGCAAUCUUGGUUGCUTT against Hoxa3          z-score        0.734
15     CCCACUCCAAACAUCUAAATT against Gadd45b          z-score        0.111
16  GCAAUGGUUGGUUCAAUAATT against 5730427C23Rik          z-score        -1.47
